- System: SR leukemia
- measurementDescription: NCI-60 one-dose screen, 48 h (100 = growth as untreated, 0 = no growth, -100 = all killed)
- recordedConditions: 10 µM
This is part of a sample that, as a whole, favours compounds with a hit. Of some 83,000 tested, about 20% had one in any assay.
readoutLabel: growth (%)
The answer is to be given in %; state only the numeric part.

See these solved cases before continuing.
{"molecule": "Cn1c(=O)c2[nH]c(C(O)c3ccc(Cl)cc3)nc2n(C)c1=O (stereo unspecified)", "endpointValue": 104}
{"molecule": "CCOC(=O)/C(C#N)=C(/C)C1CC1", "endpointValue": 102}
{"molecule": "Nc1cc2c(cc1Cl)-c1ccc(Cl)cc1C2=O", "endpointValue": 109}
{"molecule": "COc1c(-c2c3sc(=O)[nH]c3nc3c2c(=O)[nH]n3C(C)C)cc2c(c1OC)OCO2", "endpointValue": 84.9}
{"molecule": "Cc1ccc(-n2nnc3c(sc4ccccc43)c2=O)cc1", "endpointValue": 75.1}

Now look at this entry.
For the molecule Cc1c(C(=O)N[C@H](CO)Cc2ccccc2)[nH]c2ccc(Cl)cc2c1=O , give its reported growth.
81.4

* * *

- Test system: OVCAR-3 ovarian
- measurementDescription: NCI-60 one-dose screen, 48 h (100 = growth as untreated, 0 = no growth, -100 = all killed)
- recordedConditions: 10 µM
Compounds without any hit were thinned out: in the full panel of roughly 83,000, 20% have a hit. Calls of active or inactive are those of the source. How the source made its calls: active means growth percent below 10; inactive means the rest.
readoutLabel: growth

{"compound": "COc1ccc(COC(=O)CC(C)C)cc1", "endpointValue": "105% (inactive)"}
{"compound": "O=NN(CCCl)C(=O)Nc1ccc(NC(=O)N(CCCl)N=O)cc1", "endpointValue": "111% (inactive)"}
{"compound": "COc1cc(CSc2nc3ccc(C)cc3c(=O)n2-c2ccccc2)cc(OC)c1OC", "endpointValue": "-1.43% (active)"}
{"compound": "CCCCn1c(=O)[nH]c(N)c(C(c2ccc(Cl)cc2)c2c(N)[nH]c(=O)n(CCCC)c2=O)c1=O", "endpointValue": "27.2% (inactive)"}
{"compound": "NC(=O)C12C(=O)NC(=O)C1(C(=O)O)C21CCCC1 (configuration not stated)", "endpointValue": "116% (inactive)"}

For the compound COc1cc(-c2nc3ccccc3[nH]2)ccc1OCC(=O)N=Nc1c(O)[nH]c2ccccc12 , give its reported growth.
79.6% (inactive)

For the compound Cc1cc(OI)c(C(C)C)cc1-c1cc(C(C)C)c(OI)cc1C , give its reported growth.
108% (inactive)

For the compound C/C(=N\NC(N)=S)C(C)(C)O , give its reported growth.
53.1% (inactive)

* * *

Some compounds, each annotated with its measured growth.
- Test system: MALME-3M melanoma
- measurementDescription: NCI-60 one-dose screen, 48 h (100 = growth as untreated, 0 = no growth, -100 = all killed)
- recordedConditions: 10 µM
Compounds without any hit were thinned out: in the full panel of roughly 83,000, 20% have a hit.
The answer is to be given in %; state only the numeric part.

See these solved cases before continuing.
{"compound": "CCOC(=O)Nc1ccc2c(c1)C(=O)N(CC)c1ccccc1O2", "growth, %": 68}
{"compound": "COc1cc(-c2nc3cc(Cl)c(Cl)cc3[nH]2)ccc1OCC(=O)NN", "growth, %": 95.3}
{"compound": "COCCNCC(O)Cn1c2ccc(Cl)cc2c2cc(Cl)ccc21 (stereo not drawn)", "growth, %": -86.3}

State measured growth of the compound Cc1cccc2c(Nc3ccc(NS(C)(=O)=O)cc3)c3ccc([N+](=O)[O-])cc3nc12 with MALME-3M melanoma.
-22

State measured growth of the compound CCCCc1ccc(NC(=O)N(CCCl)N=O)cc1 with MALME-3M melanoma.
101

State measured growth of the compound CNC(=O)c1cc(Oc2ccc(NC(=O)Nc3ccc(Cl)c(OC4CCCCC4)c3)c(F)c2)ccn1 with MALME-3M melanoma.
69

State measured growth of the compound O=C(O)CCCCSCCCCC(=O)O with MALME-3M melanoma.
101

State measured growth of the compound O=C(C=P(c1ccccc1)(c1ccccc1)c1ccccc1)c1ccc(Br)cc1 with MALME-3M melanoma.
85.5

State measured growth of the compound CCCCC(CC#N)(CCC)CCC with MALME-3M melanoma.
82.7

State measured growth of the compound NCCNc1ccc2cc(-c3nc4ccccc4[nH]3)c(=O)oc2c1 with MALME-3M melanoma.
105

State measured growth of the compound Fc1cc(-c2ncc(-c3cc(F)c(F)c(F)c3)c(NC3CCCCCC3)n2)cc(F)c1F with MALME-3M melanoma.
140

State measured growth of the compound CS(=O)(=O)Nc1ccc(Nc2c3ccccc3nc3cc(Cl)ccc23)cc1 with MALME-3M melanoma.
28.3

State measured growth of the compound O=C(c1ccccc1)C(Nc1ccccc1)c1ccccc1 (stereo not drawn) with MALME-3M melanoma.
90

* * *

- System: DU-145 prostate
- measurementDescription: NCI-60 one-dose screen, 48 h (100 = growth as untreated, 0 = no growth, -100 = all killed)
- recordedConditions: 10 µM
About 83,000 compounds went through this panel and 20% of them were active in at least one assay; those are over-represented in the sample as a whole.
Some compounds, each annotated with its measured growth.
The answer is to be given in %; state only the numeric part.

See these solved cases before continuing.
{"compound": "CC[C@@]1(C(N)=O)CC2C=CC1C2 (some centres undefined)", "targetEntity": "DU-145 prostate", "readingUnit": "%", "growth": 113}
{"compound": "CCCCCC(CCC)COC(=O)c1ccc(OC)cc1 (centres undefined)", "targetEntity": "DU-145 prostate", "readingUnit": "%", "growth": 109}
{"compound": "C=CCn1c(C)nc2cc(Nc3nc(Nc4ccc5nc(C)n(CC=C)c5c4)c4ccccc4n3)ccc21", "targetEntity": "DU-145 prostate", "readingUnit": "%", "growth": -96}
{"compound": "C[n+]1c(/C=C/c2c[nH]c3ccccc23)ccc2ccccc21", "targetEntity": "DU-145 prostate", "readingUnit": "%", "growth": 60.9}
{"compound": "NC1CCC(Nc2nc(NCc3ccc(-c4ccccc4O)nc3)c3ncn(C4CCCC4)c3n2)CC1 (centres undefined)", "targetEntity": "DU-145 prostate", "readingUnit": "%", "growth": -4.56}
{"compound": "CCN(CC)CCOC(=O)c1ccc(NC(=O)Nc2cccc(Cl)c2)cc1", "targetEntity": "DU-145 prostate", "readingUnit": "%", "growth": 105}

Now look at this entry.
State measured growth of the compound COC(=O)c1cnc2c(c1)Oc1ccc(Cl)cc1-c1cc(C)nn1-2 with DU-145 prostate.
79.6

* * *

- Test system: NCI-H226 lung
- measurementDescription: NCI-60 one-dose screen, 48 h
- recordedConditions: 10 µM
About 83,000 compounds went through this panel and 20% of them were active in at least one assay; those are over-represented in the sample as a whole. Activity calls are given as the source filed them. The calls were made as follows: active = growth percent below 10; inactive = the rest.
Answer with one of the outcomes class 1 for active, class 0 for inactive

{"compound": "Cc1noc(C)c1-c1ccc2nc(NC(=O)[C@H]3CCN(C#N)C3)cn2c1", "targetEntity": "NCI-H226 lung", "labelClass": "class 0"}
{"compound": "O=C1CC[C@@H](C(=O)N[C@H]2CSSC[C@@H](C(=O)N/C=C/c3ccc(O)cc3)NC(=O)[C@H](Cc3ccccc3)NC(=O)[C@@H]3CCCN3C(=O)[C@@H]3CCCN3C2=O)N1", "targetEntity": "NCI-H226 lung", "labelClass": "class 0"}
{"compound": "COc1cccc2c1C(=O)c1c(O)c3c(c(O)c1C2=O)C[C@@](O)(C(=O)COC(=O)c1cccnc1)C[C@@H]3OC1CC(N)C(O)C(C)O1 (stereo not given in full)", "targetEntity": "NCI-H226 lung", "labelClass": "class 1"}

Fill in: this test's call for CCN1CCN(c2ccc(Nc3ncnc4c3nnn4CCc3cc(OC)cc(OC)c3)cc2)CC1 is ___
class 0

Fill in: this test's call for CCOCC[P+](c1ccccc1)(c1ccccc1)c1ccccc1 is ___
class 0

* * *

Some molecules, each annotated with its measured growth.
- System: COLO 205 colon
- measurementDescription: NCI-60 one-dose screen, 48 h (100 = growth as untreated, 0 = no growth, -100 = all killed)
- recordedConditions: 10 µM
Compounds without any hit were thinned out: in the full panel of roughly 83,000, 20% have a hit.
The answer is to be given in %; state only the numeric part.

For the molecule COc1ccccc1Cn1cc2c(c1-c1ccccc1)CCc1cnoc1-2 , give its reported growth.
19.6

For the molecule Cc1cc(=O)oc2cc(OCc3cn(CC(O)CO)nn3)ccc12 (stereo not given) , give its reported growth.
108

For the molecule Nc1ncncc1-c1ccc(F)cc1 , give its reported growth.
114

Source: PubChem BioAssay (NCI)
